Target: T1, Peptide 4: Biotin-AGGGGSGGGGSGGGGSAAA-Tyr-acid (N-terminal biotin; C-terminal acid)
T1 construct: control peptide without PC
T1 peptide: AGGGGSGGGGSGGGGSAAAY
Assay: scFv ELISA
Consider the following binders and their measured OD450 readings.
Express your answer in OD450, writing the number without its unit.

Worked examples follow.
# Binder, Unit annotation, OD450
measured = [
    ("PcOxP_DB01_E06 (scFv, V domains shown, scFv in periplasmic extract) VH: EVQLLESGGGLVQPGGSLRLSCAASGFTFSDQYMEWVRQAPGKGLEWVAASRNKANDYTTEYADSVKGRFTISRDNSKNTLYLQMNSLRAEDTAVYYCARDYYGSSYWYFDLWGQGTLVTVSS VL: DIQMTQSPSSLSASVGDRVTITCTASESLYSSKHKVHYVAWYQQKPGKAPKLLIYGASNRYIGVPSRFSGSGSGTDFTLTISSLQPEDFATYYCAQFYYYPLTFGGGTKVEIK", "OD450", 0.05),
    ("PcOxP_DB02_D10 (scFv, V domains shown, scFv in periplasmic extract) VH: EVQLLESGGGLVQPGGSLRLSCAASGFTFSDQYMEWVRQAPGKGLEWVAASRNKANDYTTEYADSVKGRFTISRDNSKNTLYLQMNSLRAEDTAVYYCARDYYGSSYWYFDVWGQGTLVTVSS VL: DIQMTQSPSSLSASVGDRVTITCTATESLYSSKHKVHYLAWYQQKPGKAPKLLIYGASNRYTGVPSRFSGSGSGTDFTLTISSLQPEDFATYYCAQFYSYPLTFGGGTKVEIK", "OD450", 0.05),
    ("PcOxP_DB03_E07 (scFv, V domains shown, scFv in periplasmic extract) VH: EVQLLESGGGLVQPGGSLRLSCAASGFTFSDNYMEWVRQAPGKGLEWVAASRNKANDYTNEYADSVKGRFTISRDNSKNTLYLQMNSLRAEDTAVYYCARDYYGSSYWYFDVWGQGTLVTVSS VL: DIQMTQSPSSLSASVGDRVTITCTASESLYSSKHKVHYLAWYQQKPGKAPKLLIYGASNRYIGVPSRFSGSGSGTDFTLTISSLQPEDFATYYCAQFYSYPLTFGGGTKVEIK", "OD450", 0.05),
]

### Prompt // query OD450 value for entry PcOxP_DB03_A08 (scFv, V domains shown, scFv in periplasmic extract) VH: EVQLLESGGGLVQPGGSLRLSCAASGFTFSDVYMEWVRQAPGKGLEWVAASRNKANDYTTEYADSVKGRFTISRDNSKNTLYLQMNSLRAEDTAVYYCARDYYGSSYWYFDVWGQGTLVTVSS VL: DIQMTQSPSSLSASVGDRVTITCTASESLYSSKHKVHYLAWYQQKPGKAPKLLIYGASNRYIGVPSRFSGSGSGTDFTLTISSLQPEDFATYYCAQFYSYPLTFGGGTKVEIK
### Response 0.06

### Prompt Which value of OD450 has been reported for PcOxP_DB03_G03 (scFv, V domains shown, scFv in periplasmic extract) VH: EVQLLESGGGLVQPGGSLRLSCAASGFTSSDFYMEWVRQAPGKGLEWVAASRNKANDYTTEYADSVKGRFTISRDNSKNTLYLQMNSLRAEDTAVYYCARDYYGSSYWYFDVWGQGTLVTVSS VL: DIQMTQSPSSLSASVGDRVTITCTASQSISSSKHKVHYLAWYQQKPGKAPKLLIYGASNHYIGVPSRFSGSGSGTDFTLTISSLQPEDFATYYCAQFYSYPLTFGGGTKVEIK in the records?
### Response 0.05

### Prompt Entry PcOxP_DB01_B08 (scFv, V domains shown, scFv in periplasmic extract) VH: EVQLLESGGGLVQPGGSLRLSCAASGFTFSDSYMEWVRQAPGKGLEWVAASRNKANDYTTSYADSVKGRFTISRDNSKNTLYLQMNSLRAEDTAVYYCARDYYGSSYWYFDVWGQGTLVTVSS VL: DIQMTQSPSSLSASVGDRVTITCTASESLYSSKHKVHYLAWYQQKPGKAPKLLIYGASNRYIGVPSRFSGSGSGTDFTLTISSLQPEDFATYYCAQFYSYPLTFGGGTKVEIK has what OD450?
### Response 0.06

### Prompt # query: OD450 of entry PcOxP_DB02_G09 (scFv, V domains shown, scFv in periplasmic extract) VH: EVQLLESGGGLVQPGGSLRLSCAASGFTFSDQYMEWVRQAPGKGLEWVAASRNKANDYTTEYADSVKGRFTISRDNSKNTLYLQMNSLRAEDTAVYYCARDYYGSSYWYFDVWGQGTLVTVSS VL: DIQMTQSPSSLSASVGDRVTITCTASESLYSSKHKVHYLAWYQQKPGKAPKLLIYGASNRPIGVPSRFSGSGSGTDFTLTISSLQPEDFATYYCAQFYSYPLTFGGGTKVEIK
### Response 0.05

### Prompt # input binder: PcOxP_DB02_G06 (scFv, V domains shown, scFv in periplasmic extract) VH: EVQLLESGGGLVQPGGSLRLSCAASGFTFSSYYMEWVRQAPGKGLEWVAASRNQANDYTTEYADSVKGRFTISRDNSKNTLYLQMNSLRAEDTAVYYCARDYYGSPYWYFDVWGQGTLVTVSS VL: DIQMTQSPSSLSASVGDRVTITCTASESLYSSKHKVHYLAWYQQKPGKAPKLLIYGVSNRYIGVPSRFSGSGSGTDFTLTISSLQPEDFATYYCAQFYSYPLTFGGGTKVEIK ; wanted: its OD450
### Response 0.06

### Prompt What does the record list as OD450 for PcOxP_DB01_B01 (scFv, V domains shown, scFv in periplasmic extract) VH: EVQLLESGGGLVQPGGSLRLSCAASGFTFSDQYIEWVRQAPGKGLEWVAASRNKANDYTTEYADSVKGRFTISRDNSKNTLYLQMNSLRAEDTAVYYCARDYLGSSYWYFDVWGQGTLVTVSS VL: DIQMTQSPSSLSASVGDRVTITCTASESLYSSKHKVHYLAWYQQKPGKAPKLLIYGASHRYIGVPSRFSGSGSGTDFTLTISSLQPEDFATYYCAQFYAYPLTFGGGTKVEIK ?
### Response 0.07

### Prompt State the recorded OD450 for this entry: PcOxP_DB02_B12 (scFv, V domains shown, scFv in periplasmic extract) VH: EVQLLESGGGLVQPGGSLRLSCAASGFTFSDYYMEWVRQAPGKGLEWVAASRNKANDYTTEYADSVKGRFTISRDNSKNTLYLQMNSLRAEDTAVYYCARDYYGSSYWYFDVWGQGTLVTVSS VL: DIQMTQSPSSLSASVGDRVTITCTASESLYSSKHKVHYLAWYQQKPGKAPKLLIYGQSNRYIGVPSRFSGSGSGTDFTLTISSLQPEDFATYYCAQFYSYPLTFGGGTKVEIK
### Response 0.05

Origin of measurements: patent US20250320312A1
